Target: T1, human GIP receptor (human) (UniProt P48546)
T1 sequence (looked up): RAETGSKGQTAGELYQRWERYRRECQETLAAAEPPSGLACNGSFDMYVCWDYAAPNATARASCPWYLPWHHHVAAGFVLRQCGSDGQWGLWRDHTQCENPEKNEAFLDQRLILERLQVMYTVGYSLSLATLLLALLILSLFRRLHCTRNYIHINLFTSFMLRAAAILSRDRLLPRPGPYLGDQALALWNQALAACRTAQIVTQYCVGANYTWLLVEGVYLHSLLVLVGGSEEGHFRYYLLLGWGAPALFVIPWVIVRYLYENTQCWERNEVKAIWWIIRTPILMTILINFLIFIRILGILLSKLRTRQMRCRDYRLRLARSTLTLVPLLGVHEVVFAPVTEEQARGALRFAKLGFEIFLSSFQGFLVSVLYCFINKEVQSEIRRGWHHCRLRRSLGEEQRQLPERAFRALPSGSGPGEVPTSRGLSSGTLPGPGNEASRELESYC
Test: cell-based or functional assay
Reported property: log10(cAMP EC50) (log10 of the value in pM)
Please be aware that the numbers have been log10-transformed from cAMP EC50 in pM.

The reported log10(cAMP EC50) of the binder IP310 (Fc fusion) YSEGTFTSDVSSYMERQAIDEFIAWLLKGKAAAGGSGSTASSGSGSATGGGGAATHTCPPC was 2.18

The reported log10(cAMP EC50) of the binder IP150 (Fc fusion) YSEGTFTSDVSSYLEGQAAKEFIAWLVAGGAPPGGSGSTASSGSGSATGGGGAATHTCPPCPAPEF was 4.20

The reported log10(cAMP EC50) of the binder IP173 (Fc fusion) YSEGTFTSDVSSYLEEQAAKEFIAWLLAGAAAGGSGSTASSGSGSATGGGGAATHTCPPCPAPEF was 3.08

The reported log10(cAMP EC50) of the binder IP396 (Fc fusion) YSEGTFTSDYSKLLERQAIDEFIAWLLKGGGGGGGSGGGGSGGGGSGGGGSACPPC was 0.97

The reported log10(cAMP EC50) of the binder IP337 (Fc fusion) YSEGTFISDYSIAMDKIHQQDFVNWLLAQKGGGGGSGGGGSGGGGSGGGGSGGGGSGGGGSGGGGSA was 0.79

The reported log10(cAMP EC50) of the binder IP344 (Fc fusion) YSEGTFISDYSIAMDKIHQQDFVNWLLAQKGGGGGSGGGGSGGGGSGGGGSGGGGSA was 0.72

The reported log10(cAMP EC50) of the binder IP366 (Fc fusion) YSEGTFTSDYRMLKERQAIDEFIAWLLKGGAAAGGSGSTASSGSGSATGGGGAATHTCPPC was 2.15

The reported log10(cAMP EC50) of the binder IP350 (Fc fusion) YSEGTFTSDYSKLLERQAIDEFIAGLLKGGGGGGGSGGGGSGGGGSGGGGSGGGGSGGGGSA was 1.11

The reported log10(cAMP EC50) of the binder IP250 (Fc fusion) YSEGTFTSDVSIAMDRQAIDEFIAWLLKGGAAAGGSGSTASSGSGSATGGGGAATHTCPPCPAPEF was 2.04

The reported log10(cAMP EC50) of the binder IP375 (Fc fusion) YSEGTHTSLFSKLLERQAIDEFIAWLLKGGAAAGGSGSTASSGSGSATGGGGAATHTCPPC was 1.89

The reported log10(cAMP EC50) of the binder IP208 (Fc fusion) YSEGTFTSDVSSYLEGQAAKEFIAWLLAGAAAGGSGSTASSGSGSATGGGGAATHTCPPCPAPEF was 4.23

The reported log10(cAMP EC50) of the binder IP307 (Fc fusion) YSEGTFTSDVSSYMERQAIDEFIAWLLKQGAAAGGSGSTASSGSGSATGGGGAATHTCPPC was 1.96

The reported log10(cAMP EC50) of the binder IP332 (Fc fusion) YSEGTFTSDYSIALAAAAQQDFVNWLLAGGGGGGGSGGGGSGGGGSGGGGSGGGGSGGGGSA was 1.41

The origin of these recorded values is patent US20160185837A1.
